Below, each entry is listed alongside its reported Signature Projection Score (SPS).
System: Reticulocyte Depletion Signature (Alas2 and peripherin probes), liver
experimental-conditions: liver data; highest training treatment normalised to 100; * = p < 0.01

[
  {
    "compound": "C[C@]12CCC(=O)C=C1CC[C@@H]1[C@@H]2CC[C@@]2(C)[C@H]1CC[C@]2(C)O",
    "Signature Projection Score (SPS)": "59*"
  },
  {
    "compound": "O=P1(NCCCl)OCCCN1CCCl (stereo not drawn) [IFOSFAMIDE]",
    "Signature Projection Score (SPS)": "95*"
  },
  {
    "compound": "NC(=O)NO [HYDROXYUREA, Hydroxyurea]",
    "Signature Projection Score (SPS)": "71*"
  }
]

----------
In this section we review reported Signature Projection Score (SPS) values for a set of molecules.
Tested on: Reticulocyte Depletion Signature (Alas2 and peripherin probes), liver
experimental-conditions: rat, in vivo
Marks after values point to notes of the source that are not given here.

[
  {
    "molecule": "C#C[C@]1(O)CC[C@H]2[C@@H]3CCc4cc(O)ccc4[C@H]3CC[C@@]21C",
    "Signature Projection Score (SPS)": "75*"
  },
  {
    "molecule": "Nc1ccn([C@@H]2O[C@H](CO)[C@@H](O)[C@@H]2O)c(=O)n1",
    "Signature Projection Score (SPS)": "58*"
  },
  {
    "molecule": "Clc1ccc(COC(Cn2ccnc2)c2ccc(Cl)cc2Cl)c(Cl)c1 (stereo not drawn)",
    "Signature Projection Score (SPS)": 38
  },
  {
    "molecule": "COc1cc([C@@H]2c3cc4c(cc3[C@@H](O[C@@H]3O[C@@H]5CO[C@@H](C)O[C@H]5[C@H](O)[C@H]3O)[C@H]3COC(=O)[C@H]23)OCO4)cc(OC)c1O [ETOPOSIDE]",
    "Signature Projection Score (SPS)": "100*"
  },
  {
    "molecule": "Cc1oncc1C(=O)Nc1ccc(C(F)(F)F)cc1 [LEFLUNOMIDE]",
    "Signature Projection Score (SPS)": 22
  },
  {
    "molecule": "CN(Cc1cnc2nc(N)nc(N)c2n1)c1ccc(C(=O)N[C@@H](CCC(=O)O)C(=O)O)cc1 [METHOTREXATE]",
    "Signature Projection Score (SPS)": "72*"
  },
  {
    "molecule": "CC(C)n1c(/C=C/C(O)CC(O)CC(=O)O)c(-c2ccc(F)cc2)c2ccccc21 (stereo not drawn)",
    "Signature Projection Score (SPS)": 0
  },
  {
    "molecule": "CC[C@H](C)C(=O)O[C@H]1C[C@@H](C)C=C2C=C[C@H](C)[C@H](CC[C@@H]3C[C@@H](O)CC(=O)O3)[C@H]21",
    "Signature Projection Score (SPS)": 26
  },
  {
    "molecule": "CC(=O)N1CCN(c2ccc(OCC3COC(Cn4ccnc4)(c4ccc(Cl)cc4Cl)O3)cc2)CC1 (stereo not drawn)",
    "Signature Projection Score (SPS)": 29
  }
]
